Measured Target: Human C3 (Complement tech cat #A113c) (human, UniProt P01024 23-1663)
Sequence (P01024 23-1663 limits assumed): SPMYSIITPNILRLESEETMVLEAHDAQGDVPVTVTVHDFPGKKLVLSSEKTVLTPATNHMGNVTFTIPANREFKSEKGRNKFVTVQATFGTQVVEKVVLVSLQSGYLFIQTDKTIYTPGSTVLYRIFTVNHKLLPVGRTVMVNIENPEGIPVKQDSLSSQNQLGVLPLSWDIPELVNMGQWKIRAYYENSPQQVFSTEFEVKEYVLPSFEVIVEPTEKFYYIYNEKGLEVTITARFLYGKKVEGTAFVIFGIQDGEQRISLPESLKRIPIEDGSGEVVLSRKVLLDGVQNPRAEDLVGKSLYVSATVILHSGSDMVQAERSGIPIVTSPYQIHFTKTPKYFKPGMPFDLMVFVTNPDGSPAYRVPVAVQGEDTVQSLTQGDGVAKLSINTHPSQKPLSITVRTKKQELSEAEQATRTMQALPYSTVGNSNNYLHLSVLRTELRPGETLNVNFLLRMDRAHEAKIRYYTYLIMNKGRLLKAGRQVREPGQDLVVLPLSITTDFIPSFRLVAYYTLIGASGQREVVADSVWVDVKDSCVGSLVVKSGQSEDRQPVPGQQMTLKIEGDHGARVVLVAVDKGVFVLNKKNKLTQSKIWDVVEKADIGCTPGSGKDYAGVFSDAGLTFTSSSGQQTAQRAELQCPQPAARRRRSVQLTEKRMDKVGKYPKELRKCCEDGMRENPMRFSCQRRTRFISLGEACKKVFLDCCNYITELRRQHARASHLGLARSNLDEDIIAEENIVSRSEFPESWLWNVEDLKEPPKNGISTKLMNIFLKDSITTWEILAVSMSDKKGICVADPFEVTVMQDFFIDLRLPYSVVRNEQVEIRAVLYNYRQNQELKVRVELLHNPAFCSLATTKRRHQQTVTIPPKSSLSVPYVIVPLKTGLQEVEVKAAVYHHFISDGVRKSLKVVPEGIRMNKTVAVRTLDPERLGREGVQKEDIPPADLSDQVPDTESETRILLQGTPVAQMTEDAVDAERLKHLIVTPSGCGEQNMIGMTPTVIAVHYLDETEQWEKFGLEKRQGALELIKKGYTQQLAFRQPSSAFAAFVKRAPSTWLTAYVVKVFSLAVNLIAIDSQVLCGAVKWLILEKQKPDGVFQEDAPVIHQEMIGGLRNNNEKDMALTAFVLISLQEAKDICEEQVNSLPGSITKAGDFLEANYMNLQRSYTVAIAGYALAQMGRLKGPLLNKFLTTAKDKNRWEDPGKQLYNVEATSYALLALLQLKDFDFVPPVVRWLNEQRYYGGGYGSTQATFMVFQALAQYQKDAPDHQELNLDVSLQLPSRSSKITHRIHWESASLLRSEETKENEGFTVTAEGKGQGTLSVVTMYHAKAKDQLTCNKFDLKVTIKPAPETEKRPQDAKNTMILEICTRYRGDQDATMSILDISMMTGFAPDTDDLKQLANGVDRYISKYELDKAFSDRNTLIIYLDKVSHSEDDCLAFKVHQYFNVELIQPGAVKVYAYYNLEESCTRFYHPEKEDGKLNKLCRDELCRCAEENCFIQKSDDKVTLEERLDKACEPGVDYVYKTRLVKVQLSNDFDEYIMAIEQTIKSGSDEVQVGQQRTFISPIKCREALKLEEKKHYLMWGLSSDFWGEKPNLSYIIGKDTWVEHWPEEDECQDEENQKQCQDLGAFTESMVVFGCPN
Procedure Summary: cell-based or functional assay
Positions of bridges follow the written chain, without caps; N, C: chain ends.
Quantity Measured: inhibition of hemolysis IC50

Req: For Ac-ICIWQDWGAHRCT-NH2 (disulfide 2-12; SMILES CC[C@H](C)[C@H](NC(C)=O)C(=O)N[C@H]1CSSC[C@@H](C(=O)N[C@H](C(N)=O)[C@@H](C)O)NC(=O)[C@H](CCCNC(=N)N)NC(=O)[C@H](Cc2c[nH]cn2)NC(=O)[C@H](C)NC(=O)CNC(=O)[C@H](Cc2c[nH]c3ccccc23)NC(=O)[C@H](CC(=O)O)NC(=O)[C@H](CCC(N)=O)NC(=O)[C@H](Cc2c[nH]c3ccccc23)NC(=O)[C@H]([C@@H](C)CC)NC1=O) [Compound 1] , what is its reported inhibition of hemolysis IC50?
Resp: < 0.25 µM
